Kindly supply the reported solubility values for the records listed here.
- experimental-details: Solubility assay in phosphate buffer
- study-conditions: phosphate buffer 100 mM, pH 7.4, room temperature, 20-24 h, LC-UV
Provide only the numeric value, understood in µM.

solubility for "O=C1NCCOCCn2c(nc3ccccc32)NC(=O)c2cccc1c2" is 15.2

response.value for COC1(C)CN(C(=O)c2cccc3c2N2/C(=N/C(=O)c4cccc(c4)C(=O)NCCCCC2C)N3)C1 (centres unmarked) (field: solubility) = 80.0

The value of solubility measured for the molecule C[C@@H]1CCCCNC(=O)c2cccc(c2)C(=O)Nc2nc3ccc(Cl)c(C(=O)N(C)C)c3n21 [Example 56] turned out to be 7.1

// field: solubility; key: C[C@@H]1CCCCNC(=O)c2cccc(c2)C(=O)Nc2nc3ccc(Cl)c(C(=O)N(C)C)c3n21 [Example 55] ; value = 74.0

solubility reported for this molecule CC(C)N(C)C(=O)c1cccc2c1N1/C(=N/C(=O)c3cccc(c3)C(=O)NCCCCC1C)N2 (centres unmarked) : 24.0

Data origin, for the record: patent US20240279233A1
